tgt: Ghrelin receptor (Homo sapiens, UniProt Q92847)
Sequence (Q92847 whole entry): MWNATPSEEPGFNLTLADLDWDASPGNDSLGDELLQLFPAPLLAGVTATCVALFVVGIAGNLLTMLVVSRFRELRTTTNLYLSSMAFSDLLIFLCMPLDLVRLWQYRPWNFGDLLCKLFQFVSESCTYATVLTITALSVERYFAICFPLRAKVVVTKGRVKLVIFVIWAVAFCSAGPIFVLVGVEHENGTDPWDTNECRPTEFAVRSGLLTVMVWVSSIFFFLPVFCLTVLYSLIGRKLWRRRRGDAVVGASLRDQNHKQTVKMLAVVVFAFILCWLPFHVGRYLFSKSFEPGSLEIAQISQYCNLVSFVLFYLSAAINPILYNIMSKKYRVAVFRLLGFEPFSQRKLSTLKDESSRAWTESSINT
experimentDescription: Receptor Selection and Amplification Technology (R-SAT) assay
Assay type: cell-based
Design: expressed in transfected cells; host or cells: NIH3T3
studyConditions: […]; '—' not defined (nd used separately); read-out: RSAT pIC50 (converted)
# IC50 binned as low class: < 20 nM; middle class: ≥ 20 nM and < 300 nM; high class: ≥ 300 nM

Band for the recorded IC50 of `COc1ccc2c(C(C)=O)cn(CCCN3CCC(c4ccccc4OC)CC3)c2c1` ?
middle class

Hello team, could you let me know which band the following molecule falls into: `CC(=O)c1cn(CCCN2CCC(N3C(=O)Cc4ccccc43)CC2)c2c(C)cccc12`
high class

Any idea which band `COc1cccc2c(C(=O)Cc3ccccc3)cn(CCCN3CCCN(Cc4ccccc4Cl)CC3)c12` is in?
low class

Band assignment needed for `CCCCC1CCN(CCCn2cc(C(=O)c3ccccc3)c3cccc(OC)c32)CC1` please.
low class

Quick check: band for `COc1cccc2c(C(=O)C3CC3)cn(CCCN3CCC(c4nc5ccccc5s4)CC3)c12`
high class

Class for `COc1cccc2c(C(=O)c3ccccc3)cn(CCCN3CCC4(CC3)CC(=O)c3ccccc3O4)c12` ?
middle class

Class (by measured IC50) for `CCCCC[C@H]1C[C@H]2CC[C@@H](C1)N2CCCn1cc(C(=O)NCc2cccc(Cl)c2)c2cccc(OC)c21`
middle class

Categorize the following entry: `CCc1cccc2c(C(C)=O)cn(CCCN3CCC4(CC3)CC(=O)c3ccccc3O4)c12`
middle class

* * *

tgt: Ghrelin receptor (Homo sapiens, UniProt Q92847)
experimentDescription: Receptor Selection and Amplification Technology (R-SAT) assay
Assay type: cell-based
Parameters: expressed in transfected cells; host or cells: NIH3T3
studyConditions: […]; '—' not defined (nd used separately); read-out: RSAT pIC50 (converted)
endpointName: IC50 (nM)
Please give a number only; it is taken to be in nM.

Form: compound = `COc1cccc2c(C(=O)NCc3cccc(C)c3)cn(CCCN3CCC(C(=O)c4ccccc4)CC3)c12` ; IC50 = 100

Entry under test: COc1cccc2c(C(=O)c3ccccc3)cn(CCCN3C4CCC3CC(Oc3ccc(F)cc3)C4)c12 (stereo not drawn) . Its IC50 was 12.6

The compound listed as COc1cccc2c(C(=O)NCC(C)C)cn(CCCN3C4CCC3CC(CC(=O)c3ccccc3)C4)c12 (stereo not drawn) shows IC50 equal to 7.94

Record summary for `COc1cccc2c(C(=O)c3ccccc3)cn(CCCN3CCC(C(=O)c4ccccc4)CC3)c12` : reported IC50 = 501

Query `CCCOC1CCN(CCCn2cc(C(=O)CC)c3cc(Br)ccc32)CC1` yields IC50 of 158

Notebook: COc1cccc2c(C(=O)Cc3ccccc3)cn(CCCN3C4CCC3CC(Oc3ccc(F)cc3)C4)c12 (stereo not drawn) , IC50 read as 3.98

The compound `CCCOC1CCN(CCn2cc(C(C)=O)c3ccccc32)CC1` showed IC50 equal to 3160

The compound identified as `COc1cccc2c(C(=O)NCc3cccc(C)c3)cn(CCCN3CCC(N4C(=O)Cc5ccccc54)CC3)c12` registered its IC50 at 2000

// `COc1ccc2[nH]c3c(c2c1)CCN(CCCn1cc(C(C)=O)c2ccccc21)C3` : IC50 value = 794

So for `COc1cccc2c(C(=O)c3ccccc3)cn(CCCN3CCC(Oc4ccc(F)cc4)CC3)c12` , the logged IC50 turned out to be 25.1

Entry COc1cccc2c(C(=O)c3ccccc3)cn(CCCN3C4CCC3CC(Oc3ccc(Cl)cc3)C4)c12 (stereo not drawn) — recorded IC50 = 7.94

The compound COc1cccc2c(C(C)=O)cn(CCCN3C4CCC3CC(OCC3CC3)C4)c12 (stereo not drawn) showed IC50 equal to 50.1

Per the records, this compound ( `COc1cccc2c(C(=O)NCC(C)C)cn(CCCN3CCC(C(=O)c4ccccc4)CC3)c12` ) has IC50 equal to 79.4

Entry under test: `COc1cccc2c(C(=O)NCC(C)C)cn(CCCN3CCCN(CCc4ccccc4)CC3)c12` . Its IC50 was 100

For `COc1cccc2c(C(=O)Cc3ccccc3)cn(CCCN3CCC4(CC3)CC(=O)c3ccccc3O4)c12` the compound record lists IC50 as 79.4

According to the records, this compound COc1cccc2c(C(=O)c3ccccc3)cn(CCCN3C4CCC3CC(CC(=O)c3ccccc3)C4)c12 (stereo not drawn) displays IC50 of 5.01

response.value for `COc1cccc2c(C(=O)NCc3cccc(Cl)c3)cn(CCCN3CCCN(Cc4ccc(F)cc4)CC3)c12` (field: IC50) = 3.16

// IC50 value for `CCCCC[C@H]1C[C@H]2CC[C@@H](C1)N2CCCn1cc(C(=O)NCc2cccc(C)c2)c2cccc(OC)c21` : 2

Entry `COc1cccc2c(C(=O)C3CC3)cn(CCCN3CCCN(Cc4ccccc4Cl)CC3)c12` ; IC50 = 0.794

Field IC50 (entry `COc1cccc2c(C(=O)c3ccccc3)cn(CCCN3CCCN(Cc4ccccc4Cl)CC3)c12` ) reads 0.398

Per the records, this compound ( COc1cccc2c(C(=O)NCc3cccc(Cl)c3)cn(CCCN3C4CCC3CC(CCc3ccc(Cl)cc3)C4)c12 (stereo not drawn) ) has IC50 equal to 0.794

// field: IC50; key: COc1cccc2c(C(C)=O)cn(CCCN3CCC(c4nc5ccccc5s4)CC3)c12 [drawing 310] ; value = 10

Looking up COc1cccc2c(C(=O)C3CC3)cn(CCCN3C4CCC3CC(Oc3ccccc3Cl)C4)c12 (stereo not drawn) , I see its IC50 listed as 158

Entry `CC(=O)c1cn(CCCCN2CCC(Oc3ccccc3Cl)CC2)c2ccccc12` ; IC50 = 398

compound `COc1cccc2c(C(=O)c3ccccc3)cn(CCCN3CCC(Oc4ccccc4Cl)CC3)c12` , IC50 observed: 6.31

Quick note, IC50 for CC(=O)c1cn(CCCN2C3CCC2CC(CC(=O)c2ccccc2)C3)c2c(Cl)cccc12 (stereo not drawn) landed at 1580

IC50 in this record for `CCCCC1CCN(CCCn2cc(C(=O)C3CC3)c3cccc(OC)c32)CC1` : 3.98

Sure, the documented IC50 for `COc1cccc2c(C(=O)NCC(C)C)cn(CCCN3CCC(c4nc(-c5cccnc5)no4)CC3)c12` is 63.1

get_value(item= COc1cccc2c(C(=O)NCC(C)C)cn(CCCN3CCC(c4nc5ccccc5s4)CC3)c12 [drawing 234] , readout=IC50) returns 1.58

Looking up `COc1cccc2c(C(=O)NCc3cccc(C)c3)cn(CCCN3CCC(Oc4ccc(F)cc4)CC3)c12` , I see its IC50 listed as 3.16

For this compound ( COc1cccc2c(C(=O)C3CC3)cn(CCCN3C4CCC3CC(Oc3ccc(Cl)cc3)C4)c12 (stereo not drawn) ), measured IC50 is 3.98

The reported value for COc1cccc2c(C(=O)c3ccccc3)cn(CCCN3CCCC(Cc4ccccc4Cl)C3)c12 (stereo not drawn) in terms of IC50 is 63.1

IC50 in this record for `COc1cccc2c(C(=O)NCC(C)C)cn(CCCN3CCCN(Cc4ccc(F)cc4)CC3)c12` : 25.1

The reported IC50 of the compound `COc1cccc2c(C(=O)Cc3ccccc3)cn(CCCN3CCN(c4ncc(C(F)(F)F)cc4Cl)CC3)c12` was 7.94

Per the records, this compound ( COc1cccc2c(C(=O)Cc3ccccc3)cn(CCCN3C4CCC3CC(CCc3ccccc3)C4)c12 (stereo not drawn) ) has IC50 equal to 0.251

For reference, reported IC50 for `COc1cccc2c(C(=O)C3CC3)cn(CCCN3CCN(CCOc4ccc(Cl)cc4)CC3)c12` stands at 20
